From: patent US8765447B2

- Tested on: protease of Beauveria sp MTCC 5184
- Procedure Text: Effect of metal ions on protease activity
- Assay type: biochemical
- Condition Summary: 10 mM chloride salt, 28° C., 30 min
Returns: string. Value is Yes if measured Residual Activity (%) is below 90%, and No if it is greater than or equal to it.

                     molecule  classification
0  [Ca+2].[Cl-].[Cl-] [Ca^+2]             Yes
1        [Cl][Cu][Cl] [Cu^+2]              No
2        [Cl][Mn][Cl] [Mn^+2]             Yes
3  [Cl][Fe]([Cl])[Cl] [Fe^+3]             Yes
4  [Cl-].[Cl-].[Co+2] [Co^+2]              No
5              [Cd+2] [Cd^+2]             Yes
6              [Hg+2] [Hg^+2]             Yes
7         [Cl-].[Na+] [Na^+1]              No
